# MEASURED_TARGET: PIK3CA_C242 (Homo sapiens, UniProt P42336)
# Construct: endogenous in cells
# Sequence (P42336 whole entry): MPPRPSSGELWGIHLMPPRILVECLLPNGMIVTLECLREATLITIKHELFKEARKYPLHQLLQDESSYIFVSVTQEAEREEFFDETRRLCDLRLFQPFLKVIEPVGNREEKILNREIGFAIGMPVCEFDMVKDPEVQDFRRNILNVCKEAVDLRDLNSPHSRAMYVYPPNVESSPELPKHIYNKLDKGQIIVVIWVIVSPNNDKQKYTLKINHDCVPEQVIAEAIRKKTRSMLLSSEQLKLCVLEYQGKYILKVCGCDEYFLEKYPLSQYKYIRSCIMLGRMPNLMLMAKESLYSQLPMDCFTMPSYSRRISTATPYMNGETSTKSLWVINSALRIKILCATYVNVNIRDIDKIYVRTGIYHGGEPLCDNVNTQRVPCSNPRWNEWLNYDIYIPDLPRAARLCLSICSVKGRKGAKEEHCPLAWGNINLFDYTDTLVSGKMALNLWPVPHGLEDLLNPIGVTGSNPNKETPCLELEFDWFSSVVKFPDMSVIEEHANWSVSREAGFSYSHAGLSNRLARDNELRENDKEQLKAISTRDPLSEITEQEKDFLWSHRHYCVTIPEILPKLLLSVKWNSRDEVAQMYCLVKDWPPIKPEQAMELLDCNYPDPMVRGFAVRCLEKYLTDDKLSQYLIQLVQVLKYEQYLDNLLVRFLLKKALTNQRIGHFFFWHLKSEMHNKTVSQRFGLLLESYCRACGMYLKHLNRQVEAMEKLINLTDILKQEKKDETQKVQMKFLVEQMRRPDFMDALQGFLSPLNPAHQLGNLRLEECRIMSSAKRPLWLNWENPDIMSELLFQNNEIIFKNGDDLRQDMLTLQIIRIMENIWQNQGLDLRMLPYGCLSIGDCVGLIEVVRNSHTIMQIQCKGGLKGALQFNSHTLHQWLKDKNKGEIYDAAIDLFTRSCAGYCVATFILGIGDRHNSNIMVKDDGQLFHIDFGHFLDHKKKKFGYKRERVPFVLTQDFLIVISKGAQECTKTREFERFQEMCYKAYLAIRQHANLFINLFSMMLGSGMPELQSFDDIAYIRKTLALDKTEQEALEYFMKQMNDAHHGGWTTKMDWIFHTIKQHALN
# Sequence (P27986 whole entry partner): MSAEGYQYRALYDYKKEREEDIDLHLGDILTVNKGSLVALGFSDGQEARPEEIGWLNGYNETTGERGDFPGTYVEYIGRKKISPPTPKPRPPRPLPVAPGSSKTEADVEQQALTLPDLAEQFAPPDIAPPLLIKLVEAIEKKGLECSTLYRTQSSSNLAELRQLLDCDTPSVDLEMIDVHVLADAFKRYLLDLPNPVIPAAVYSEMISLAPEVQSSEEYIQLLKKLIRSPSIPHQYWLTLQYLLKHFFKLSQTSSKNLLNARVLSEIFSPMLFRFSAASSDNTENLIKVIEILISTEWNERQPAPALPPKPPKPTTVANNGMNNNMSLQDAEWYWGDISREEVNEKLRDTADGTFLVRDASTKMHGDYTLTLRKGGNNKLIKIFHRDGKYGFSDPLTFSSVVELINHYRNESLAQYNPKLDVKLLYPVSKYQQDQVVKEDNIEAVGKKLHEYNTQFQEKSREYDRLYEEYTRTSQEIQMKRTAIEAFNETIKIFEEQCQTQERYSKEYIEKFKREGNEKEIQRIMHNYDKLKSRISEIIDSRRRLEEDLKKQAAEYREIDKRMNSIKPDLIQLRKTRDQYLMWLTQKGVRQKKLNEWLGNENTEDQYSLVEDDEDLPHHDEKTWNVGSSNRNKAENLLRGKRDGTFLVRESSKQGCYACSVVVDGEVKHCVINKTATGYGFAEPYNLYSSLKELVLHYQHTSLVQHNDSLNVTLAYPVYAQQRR
# ASSAY_NOTES: Proteomic TE50 (IA-DTB / TMT mass spectrometry) in Jurkat cell lysate
# MEASUREMENT_SETUP: 1 hour at rt, 7-point dose response
# class assignment by measured IC50: bin 1 (below 300 nM), bin 2 (300 nM to below 600 nM), bin 3 (600 nM or more)

Worked cases, answers included:
C[C@H](/C=C\S(C)(=O)=O)NC(=O)C1(F)CCN(S(=O)(=O)c2ccc(O)cc2-c2ccccc2Cl)CC1 [Compound 104]: bin 3
C[C@H](/C=C\S(C)(=O)=O)NC(=O)C1(F)CCN(S(=O)(=O)c2cnc(C(F)(F)F)cc2-c2ccccc2Cl)CC1 [Compound 207]: bin 1
COc1ccc(S(=O)(=O)N2CCC(F)(C(=O)N[C@H](C)/C=C\S(C)(=O)=O)CC2)c(-c2cc(F)ccc2Cl)c1 [Compound 28]: bin 3
CC[C@@H](/C=C\S(C)(=O)=O)NC(=O)C1(F)CCN(S(=O)(=O)c2ccc(Cl)cc2-c2ccccc2)CC1 [Compound 84]: bin 2
COc1cccc(-c2cc(Cl)ccc2S(=O)(=O)N2CCC(C)(C(=O)N[C@H](C)/C=C\S(C)(=O)=O)CC2)c1 [Compound 203]: bin 3

We next turn to a different compound, shown below.
For this compound, which bin applies? CN(C)c1ccc(S(=O)(=O)N2CCC(F)(C(=O)NC/C=C/C#N)CC2)c(-c2ccccc2Cl)c1 [Compound 97] bin 2

====

# MEASURED_TARGET: PIK3CA (Homo sapiens, UniProt P42336)
# Construct: endogenous in cells
# ASSAY_NOTES: In vitro ELISA target engagement assay for PIK3CA in Jurkat cellular lysate (competition with PIK3CA Biotin Probe)
# MEASUREMENT_SETUP: 1 hour at rt, then 500 nM PIK3CA Biotin Probe, read-out: Elisa Target Engagement Assay (TE50)
RECORDED_METRIC: IC50 (nM)
Write down the numeric answer in nM and omit the unit.

The examples below pair each entry with its known result.
C[C@H](/C=C\S(C)(=O)=O)NC(=O)[C@@]1(F)CCCN(C(=O)[C@@H]2CN(CC(F)(F)F)C[C@@H]2c2c(F)cc(F)cc2Cl)CC1 (single isomer, unassigned) [Compound 227]: 340
N#C/C=C\CNC(=O)C1(F)CCN(S(=O)(=O)c2ccc(Br)cc2-c2ccccc2Cl)CC1 [Compound 70]: 95

Next compound, IC50 to be filled in.
For C[C@H](/C=C\S(C)(=O)=O)NC(=O)C1(F)CCN(S(=O)(=O)c2ccc(N(C)C)cc2-c2ccccc2Cl)CC1 [Compound 92] the compound record lists IC50 as 130

====

# MEASURED_TARGET: PIK3CA_C242 (Homo sapiens, UniProt P42336)
# Construct: endogenous in cells; host or cells: Jurkat cell lysate
# ASSAY_NOTES: Proteomic TE50 (IA-DTB / TMT mass spectrometry) in Jurkat cell lysate
# Assay type: binding
# MEASUREMENT_SETUP: 1 hour at rt, 7-point dose response
Rule: measured IC50 below 300 nM gets condition met; anything equal to or greater than 300 nM gets condition not met.

N#C/C=C/CNC(=O)C1(F)CCN(S(=O)(=O)c2ccc(Br)cc2-c2ccccc2Cl)CC1 [Compound 68]: condition not met
C[C@H](/C=C\S(C)(=O)=O)NC(=O)C1(F)CCN(S(=O)(=O)c2cnc(Cl)cc2-c2ccccc2Cl)CC1 [Compound 231]: condition met
COc1cccc(-c2cc(N(C)C)ccc2S(=O)(=O)N2CCC(F)(C(=O)N[C@@H](C)/C=C\S(C)(=O)=O)CC2)c1Cl [Compound 90]: condition not met

Does the reported IC50 of C[C@H](/C=C\S(C)(=O)=O)NC(=O)C1(F)CCN(S(=O)(=O)c2ccc(C3CCC3)cc2-c2ccccc2Cl)CC1 [Compound 98] stay below 300 nM? condition not met

Does the reported IC50 of COc1cccc(-c2cc(F)ccc2S(=O)(=O)N2CCC(F)(C(=O)N[C@@H](C)/C=C\S(C)(=O)=O)CC2)c1 [Compound 9] stay below 300 nM? condition not met

Does the reported IC50 of C[C@H](/C=C/C(=O)N1CC(F)(F)C1)NC(=O)C1(F)CCN(S(=O)(=O)c2ccc(C(F)(F)F)cc2-c2ccccc2Cl)CC1 [Compound 134] stay below 300 nM? condition met

Does the reported IC50 of COc1cc(-c2ccccc2Cl)c(S(=O)(=O)N2CCC(F)(C(=O)NC/C=C\C#N)CC2)cn1 [Compound 194] stay below 300 nM? condition met

====

# MEASURED_TARGET: PIK3CA_C242 (Homo sapiens)
# Construct: endogenous in cells
# ASSAY_NOTES: Proteomic TE50 (IA-DTB / TMT mass spectrometry) in Jurkat cell lysate
# MEASUREMENT_SETUP: 1 hour at rt, 7-point dose response
In this section, each of the compounds is paired with its reported pIC50.
Entry type: numeric. Quantity: pIC50, the -log10 of concentration in molar units.

The examples below pair each entry with its known result.
COc1cccc(-c2cc(Cl)ncc2S(=O)(=O)N2CCC(F)(C(=O)N[C@@H](C)/C=C\S(C)(=O)=O)CC2)c1: 6.26
C[C@@H](/C=C\S(C)(=O)=O)NC(=O)C1(F)CCN(S(=O)(=O)c2ccc(N(C)C)cc2-c2ccccc2Cl)CC1: 7.33
C[C@H](/C=C\S(C)(=O)=O)NC(=O)C1(F)CCN(S(=O)(=O)c2ccc(C3CN(C(=O)OC(C)(C)C)C3)cc2-c2ccccc2Cl)CC1: 6.08

For `COc1cccc(-c2cc(Cl)ccc2S(=O)(=O)N2CCC(F)(C(=O)N[C@H](C)/C=C/S(C)(=O)=O)CC2)c1` the compound record lists pIC50 as 6.29

For `C[C@@H](/C=C\S(C)(=O)=O)NC(=O)C1(F)CCN(S(=O)(=O)c2ccc(Cl)cc2-c2cccc(OCc3ccccc3)c2)CC1` the compound record lists pIC50 as 6.45

For `COc1cccc(-c2cc(Cl)ccc2S(=O)(=O)N2CCC(F)(C(=O)N[C@@H](C)/C=C\S(C)(=O)=O)CC2)c1` the compound record lists pIC50 as 6.61

For `COc1cccc(-c2cc(C)ccc2S(=O)(=O)N2CCC(F)(C(=O)NC/C=C/S(C)(=O)=O)CC2)c1` the compound record lists pIC50 as 6.20

For `COc1ccc(S(=O)(=O)N2CCC(F)(C(=O)NC/C=C/S(C)(=O)=O)CC2)c(-c2cccc(Cl)c2)c1` the compound record lists pIC50 as 6.54

For `COc1cccc(-c2cc(Br)ccc2S(=O)(=O)N2CCC(F)(C(=O)NC/C=C/S(C)(=O)=O)CC2)c1` the compound record lists pIC50 as 6.44

For `CS(=O)(=O)/C=C/CNC(=O)C1(F)CCN(S(=O)(=O)c2ccc(Cl)cc2-c2cccc(Cl)c2)CC1` the compound record lists pIC50 as 6.38

For `COCc1cccc(-c2cc(Cl)ccc2S(=O)(=O)N2CCC(F)(C(=O)N[C@@H](C)/C=C\S(C)(=O)=O)CC2)c1` the compound record lists pIC50 as 6.09

====

# MEASURED_TARGET: PIK3CA (Homo sapiens, UniProt P42336)
# Construct: endogenous in cells
# ASSAY_NOTES: In vitro ELISA target engagement assay for PIK3CA in Jurkat cellular lysate (competition with PIK3CA Biotin Probe)
# MEASUREMENT_SETUP: 1 hour at rt, then 500 nM PIK3CA Biotin Probe, read-out: Elisa Target Engagement Assay (TE50)
Rule: measured IC50 below 200 nM gets 1; anything equal to or greater than 200 nM gets -1.

Worked cases, answers included:
COC1(C(=O)N[C@H](C)/C=C\S(C)(=O)=O)CCN(S(=O)(=O)c2ccc(Br)cc2-c2ccccc2Cl)CC1: -1
C[C@H](/C=C\S(C)(=O)=O)NC(=O)[C@@]1(F)CCCN(C(=O)[C@H]2CN(CC(C)(F)F)C[C@H]2c2c(F)cccc2Cl)CC1 (single isomer, unassigned): 1
O=C(NC1C=CS(=O)(=O)C1)C1(F)CCN(S(=O)(=O)c2ccc(Br)cc2-c2ccccc2Cl)CC1 (racemic): 1
COCc1ccc(S(=O)(=O)N2CC[C@@](F)(C(=O)N[C@H](C)/C=C\S(C)(=O)=O)C[C@H]2C)c(-c2ccccc2Cl)c1: 1
C[C@H](/C=C\S(C)(=O)=O)NC(=O)[C@@]1(F)CCCN(C(=O)[C@@]2(C)CN(CC(F)(F)F)C[C@H]2c2ccccc2Cl)CC1: -1

Does the reported IC50 of `COc1ccc(C(=O)N2CCC[C@](F)(C(=O)N[C@@H]3C=CS(=O)(=O)C3)CC2)c(-c2ccccc2Cl)c1` stay below 200 nM? 1

Does the reported IC50 of `C[C@H](/C=C\S(C)(=O)=O)NC(=O)C1(F)CCN(C(=O)[C@H]2CN(CC(C)(F)F)C[C@H]2c2ccccc2Cl)CC1` stay below 200 nM? -1

Does the reported IC50 of `O=C(/C=C\CNC(=O)C1(F)CCN(S(=O)(=O)c2ccc(C(F)(F)F)cc2-c2ccccc2Cl)CC1)N1CC(F)(F)C1` stay below 200 nM? 1

Does the reported IC50 of `CCCCOc1cccc(-c2cc(Cl)ccc2S(=O)(=O)N2CCC(F)(C(=O)N[C@@H](C)/C=C\S(C)(=O)=O)CC2)c1` stay below 200 nM? -1

Where do these numbers come from? They come from patent US20250026721A1.
